target.of.assay: RAD51 (Homo sapiens)
assay.comment: Fluorescence polarization-based DNA binding assay (RAD51-ssDNA binding)
Type: biochemical
experimental.setup: Table 3; cells marked ↓: compound inhibits RAD51-ssDNA binding; read-out: ssDNA binding Max effect
reported.metric: Emax (%)
Give just the number in %; leave the unit off.

Known results for molecules:
O=[N+]([O-])c1ccc(-c2nc3cc(O)ccc3n3cccc23)cc1 [Compound 12e]; 92
COc1ccc2c(c1)nc(-c1ccc(N)cc1)c1cccn12 [Compound 12c]; 29
Nc1ccc(-c2nc3cc(F)c(F)cc3n3cccc23)cc1 [Compound 12l]; 42
Nc1ccc(-c2nc3cc(O)ccc3n3cccc23)cc1 [Compound 12f]; 82
Oc1ccc(-c2nc3cc(O)ccc3n3cccc23)cc1 [Compound 12d]; 72
Oc1ccc2c(c1)nc(-c1cccnc1)c1cccn12 [Compound 13b]; 87

Note to self: Emax recorded for COc1ccc2c(c1)nc(-c1ccc(O)cc1)c1cccn12 [Compound 12a] was 100

// field: Emax; key: COc1ccc2c(c1)nc(-c1cccnc1)c1cccn12 [Compound 13a] ; value = 16

----------
target.of.assay: RAD51 (Homo sapiens, UniProt Q06609)
Sequence (Q06609 whole entry): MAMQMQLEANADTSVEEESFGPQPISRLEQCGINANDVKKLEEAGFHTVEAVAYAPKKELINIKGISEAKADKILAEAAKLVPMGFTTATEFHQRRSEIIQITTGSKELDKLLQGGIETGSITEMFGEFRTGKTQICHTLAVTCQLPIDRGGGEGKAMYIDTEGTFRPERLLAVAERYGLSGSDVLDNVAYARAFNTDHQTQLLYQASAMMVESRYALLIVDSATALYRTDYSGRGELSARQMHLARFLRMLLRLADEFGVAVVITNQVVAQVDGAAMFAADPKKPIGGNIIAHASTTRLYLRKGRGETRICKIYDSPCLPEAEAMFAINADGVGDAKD
assay.comment: Fluorescence polarization-based DNA binding assay (RAD51-ssDNA binding)
Format: biochemical
experimental.setup: Table 2; cells marked ↓: compound inhibits RAD51-ssDNA binding; read-out: ssDNA binding Max effect
reported.metric: Emax (%)
# output: bare number, implied unit %

# count of solved cases: 2
Oc1ccc(-c2nc3ccccc3n3cccc23)cc1; 14
c1ccc2c(c1)nc(-c1ccc(N3CCOCC3)cc1)c1cccn12; 11

Now for the compound whose Emax we want.
Reported Emax for O=[N+]([O-])c1ccc(-c2nc3ccccc3n3cccc23)cc1 was 16

Value source: patent US10973819B2
